assay_text: Competitive inhibition of Schistosoma mansoni recombinant NAD+ glycohydrolase expressed in Pichia pastoris by Michaelis-Menten equation analysis
measurement_label: pKi
Remember the convention: pKi equals -log10 of concentration in molar.

Q: Given the compound Oc1cc(O)c2cc(O)c(-c3ccc(O)c(O)c3)[o+]c2c1 , what is its reported pKi?
Ans: 5.68
